Please provide measured IC50 at 72 h for the entries that follow.
# TEST_PROTOCOL: Cytotoxicity against HEK293T cells incubated for 72 hrs by CCK-8 assay
# CONDITION_INFO: human
Number only, in µM; omit the unit.

Problem: # input compound: `O=C(NO)c1cnc(N2CCC3(CN(Cc4cccc5ccncc45)C3)C2)nc1` ; wanted: its IC50 at 72 h
Solution: 0.93

Problem: Now the same for `Cn1cc(CNCC2CCN(c3ncc(C(=O)NO)cn3)CC2)c2ccccc21`
Solution: 0.06

Problem: Now this one: `O=C(NO)c1cnc(N2CCC3(CN(Cc4ccsc4)C3)C2)nc1`
Solution: 4.62

Problem: Again, but for `Cn1cc(CN2CC3(CCN(c4ncc(C(=O)NO)cn4)C3)C2)c2ccccc21`
Solution: 1.52

Value source: ChEMBL document CHEMBL5046276
